B1: POU domain, class 2, transcription factor 2, residues 200 to 269; numbered along this chain, P09086 (parent)
chain: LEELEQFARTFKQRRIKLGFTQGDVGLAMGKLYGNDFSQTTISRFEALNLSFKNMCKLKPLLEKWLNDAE

- Variants of: B1
- assay-info: abundance fitness (aPCA) (normalised: wild type 0, dead -1); higher = more abundant; growth selection in yeast, the domain comes from the species named
- conditions: Homo sapiens
Classify as follows. Reported abundance fitness greater than or equal to -0.07: Satisfied. Reported abundance fitness below: Not satisfied.

Example entries begin here.
* LEELEQFARTFKQRRIKLGFTQGDVGLAMGKLYGNDFSQTTISRFEAENLSFKNMCKLKPLLEKWLNDAE [L48E] | Satisfied
* LEELEQFARTFKQRRIKLGFTQGDVGLAMGKLYGNDFSQTTISRFEWLNLSFKNMCKLKPLLEKWLNDAE [A47W] | Not satisfied

In plain terms: is recorded abundance fitness at least -0.07 for LEELEQFARTFKQRRIKLGFTQGDVGLAMGKLYGNDFSQTTISRFEALNLSFKNMCKLKPLLEKQLNDAE [W65Q] ?
Not satisfied

Cool, now LEELEQFARTFKQRRIKMGFTQGDVGLAMGKLYGNDFSQTTISRFEALNLSFKNMCKLKPLLEKWLNDAE [L18M]
Satisfied

Can you check LEELEQFARTFKQRRIKLGFTQGDVGLAMGKLYKNDFSQTTISRFEALNLSFKNMCKLKPLLEKWLNDAE [G34K] next?
Not satisfied
